Hey, just so you know, these numbers are from patent US8846698B2.

Listing of entries alongside the reported pIC50.
# TARGET DESC: TRKA (Homo sapiens (Human))
# Sequence (P04629 441-796): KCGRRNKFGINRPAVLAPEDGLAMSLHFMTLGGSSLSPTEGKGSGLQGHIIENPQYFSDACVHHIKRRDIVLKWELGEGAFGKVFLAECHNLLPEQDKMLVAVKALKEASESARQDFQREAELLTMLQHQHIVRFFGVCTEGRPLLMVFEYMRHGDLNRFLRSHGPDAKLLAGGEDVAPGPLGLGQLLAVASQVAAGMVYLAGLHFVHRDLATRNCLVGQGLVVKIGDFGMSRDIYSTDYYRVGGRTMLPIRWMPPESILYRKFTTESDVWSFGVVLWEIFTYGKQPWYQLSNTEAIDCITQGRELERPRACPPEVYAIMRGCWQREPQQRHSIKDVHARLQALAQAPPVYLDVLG
# PROCEDURE TEXT: Isolated TRK enzyme assay (HTRF KinEASE-TK), TRKA
# Type: biochemical
# EXPERIMENTAL PARAMETERS: read-out: Trka enzyme (IC50)
pIC50: −log10 of the molar value.
READOUT NAME: pIC50

MOLECULE: CC(C)n1cc(C(=O)c2cncc(NC(=O)c3cc4c(cn3)OCCO4)c2)c2cncnc21 [Example 510]
NUMERIC READOUT: 6.60

MOLECULE: Cn1cc(C(=O)c2cncc(NC(=O)Cc3cc(F)ccc3F)c2)c2cncnc21 [Example 190]
NUMERIC READOUT: 6.09

MOLECULE: Cc1cc(CC(=O)Nc2cncc(C(=O)c3cn(C(C)C)c4ncncc34)c2)[nH]n1 [Example 134]
NUMERIC READOUT: 6.48

MOLECULE: Cn1cc(C(=O)c2cncc(NC(=O)Cc3cccc(OC(F)(F)F)c3)c2)c2cncnc21 [Example 176]
NUMERIC READOUT: 6.78

MOLECULE: CC(C)n1cc(C(=O)c2cncc(NC(=O)c3ccc4cccnc4n3)c2)c2cncnc21 [Example 467]
NUMERIC READOUT: 6.27

MOLECULE: CC(C)n1cc(C(=O)c2cncc(NC(=O)Cn3ccc(C(F)(F)F)n3)c2)c2cnc(N)nc21 [Example 252]
NUMERIC READOUT: 8.29

MOLECULE: N#Cc1cccc(CC(=O)Nc2cncc(C(=O)c3cn(C4COC4)c4ncncc34)c2)c1 [Example 221]
NUMERIC READOUT: 5.51

MOLECULE: CC(C)n1cc(C(=O)c2cncc(NC(=O)[C@@H](N)Cc3ccc(C(=O)c4ccccc4)cc3)c2)c2cncnc21 [Example 287]
NUMERIC READOUT: 5.36

MOLECULE: CN(C(=O)Cc1ccc(Cl)cn1)c1cncc(C(=O)c2cn(C(C)(C)C)c3ncncc23)c1 [Example 543]
NUMERIC READOUT: 7.30

MOLECULE: COCc1cc(C(=O)Nc2cncc(C(=O)c3cn(C(C)C)c4ncncc34)c2)no1 [Example 469]
NUMERIC READOUT: 6.28

MOLECULE: CC(C)n1cc(C(=O)c2cncc(NC(=O)Cc3cccc(C(F)(F)F)c3)c2)c2cncnc21 [Example 66]
NUMERIC READOUT: 8.45

MOLECULE: CCc1cc(C(=O)Nc2cncc(C(=O)c3cn(C(C)C)c4ncncc34)c2)no1 [Example 396]
NUMERIC READOUT: 6.75

MOLECULE: CC(C)n1cc(C(=O)c2cncc(NC(=O)Cc3ccc(Cl)cc3)c2)c2cncnc21 [Example 69]
NUMERIC READOUT: 7.96

MOLECULE: CC(C)n1cc(C(=O)c2cncc(NC(=O)Cc3cccc(OC4CC4)c3)c2)c2cncnc21 [Example 74]
NUMERIC READOUT: 5.92

MOLECULE: CC(C)n1cc(C(=O)c2cncc(NC(=O)c3cc(C4CC4)on3)c2)c2cncnc21 [Example 496]
NUMERIC READOUT: 6.70

MOLECULE: Cc1ocnc1C(=O)Nc1cncc(C(=O)c2cn(C(C)C)c3ncncc23)c1 [Example 477]
NUMERIC READOUT: 5.52
